Biological target: T1, human BDCA2 (human, UniProt Q8WTT0 1-213)
T1 construct: whole, on cells; also called hBDCA2; Blood dendritic cell antigen 2
T1 sequence (looked up): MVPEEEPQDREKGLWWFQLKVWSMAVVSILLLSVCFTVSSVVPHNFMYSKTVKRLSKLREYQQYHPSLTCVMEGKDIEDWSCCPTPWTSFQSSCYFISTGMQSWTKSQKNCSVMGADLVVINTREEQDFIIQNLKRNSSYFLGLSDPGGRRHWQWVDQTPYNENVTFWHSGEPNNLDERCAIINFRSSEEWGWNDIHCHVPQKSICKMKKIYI
Test: FACS, CHOK1-humanBDCA2 cells
For each record, write down the corresponding EC50.
One number for each entry, in nM.

As a guide, the following entries are already answered.
Hu033-10 (antibody, IgG1, V domains shown, Humanized IgG1; also called Hu033-10(BM4)) VH: EVQLVESGGGLVKPGGSLRLSCAASGFTFRSYGMSWVRQAPGKRLEWVSTISSGDSYTYYPDSVKGRFTISRDNAKNSLYLQMNSLRAEDTAVYYCARQIYYDYAYYFDFWGQGTTVTVSS VL: DIVLTQSPASLAVSPGQRATITCRASESVSFRTSHLMHWYQQKPGQPPKLLIYGASNLESGVPARFSGSGSETDFTLTINPVEAEDTANYYCQQSIEDPPTFGGGTKVEIK : 0.51
BIIB059 (antibody, V domains shown) VH: DVQLVESGGGLVKPGGSLRLSCAASGFTFSTYTMSWVRQAPGKGLEWVATISPGDSFGYYYPDSVQGRFTISRDNAKNSLYLQMNSLRAEDTAVYYCTRDIYYNYGAWFAYWGQGTLVTVSS VL: DIQLTQSPSSLSASVGDRVTITCKASQSVDYDGDSYMNWYQQKPGKAPKLLIYAASTLESGVPSRFSGSGSGTDFTLTISSLQPEDFATYYCQQANEDPRTFGQGTKVEIKR : 1.3

Hi! Can you tell me EC50 for each of these binders?
1. Hu033-13 (antibody, IgG1, V domains shown, Humanized IgG1; also called Hu033-13(BM4)) VH: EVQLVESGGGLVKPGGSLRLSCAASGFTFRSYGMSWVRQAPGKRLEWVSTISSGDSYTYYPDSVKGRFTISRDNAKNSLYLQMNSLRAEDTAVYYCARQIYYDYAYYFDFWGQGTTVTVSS VL: DIVLTQSPDSLAVSLGERATINCRASESVSFRTSHLMHWYQQKPGQPPKLLIYGASNLESGVPDRFSGSGSGTDFTLTISSLQAEDVAVYFCQQSIEDPPTFGGGTKVEIK
2. Hu033-23 (antibody, IgG1, V domains shown, Humanized IgG1; also called Hu033-23(BM3)) VH: EVQLVESGGGLVKPGGSLRLSCAASGFTFRSYGMSWVRQAPGKRLEWVSTISSGDSYTYYPDSVKGRFTISRDNAKNSLYLQMNSLKAEDTAVYYCARQIYYDYAYYFDFWGQGTTVTVSS VL: EIVLTQSPATLSLSPGERATLSCRASESVSFRTSHLMHWYQQKPGQAPRLLIYGASNLESGIPARFSGSGSGTDFTLTISRLEPEDFAVYYCQQSIEDPPTFGGGTKVEIK
3. Hu033-06 (antibody, IgG1, V domains shown, Humanized IgG1; also called Hu033-06(BM3)) VH: EVQLVESGGGLVKPGGSLRLSCAASGFTFSSYGMSWVRQAPGKGLEWVSTISSGDSYTYYPDSVKGRFTISRDNAKNSLYLQMNSLRAEDTAVYYCARQIYYDYAYYFDFWGQGTTVTVSS VL: DIVLTQSPDSLAVSLGERATINCRASESVSFRTSHLMHWYQQKPGQPPKLLIYGASNLESGVPDRFSGSGSETDFTLTISPLQAEDVAVYFCQQSIEDPPTFGGGTKVEIK

1: 0.68; 2: 0.79; 3: 0.62
